test system: HepG2; experiment: Growth inhibition of human HepG2 cells incubated for 3 days by MTT assay; details: HepG2, 72 h
pIC50: −log10 of the molar value.
outcome measure: pIC50

# smiles repr, pIC50
data = [
    ("CN1CCN(c2cccc(N/C=C3\\C(=O)Nc4ccc(NC(=O)c5c(Cl)cccc5Cl)cc43)c2)CC1", 5.63),
]

(I) O=C1Nc2ccc(F)cc2/C1=C\C(=O)c1ccc(O)cc1F
(II) O=C1Nc2ccc(F)cc2/C1=C\C(=O)c1c[nH]c2ccccc12
Inquiry: Field: entry with larger pIC50 (options I / II ). I would appreciate it if you answered with the label of your choice.
Reply text: II
(II: 5.73, I: 5.46)

(I) CC(C)CC(=O)Nc1ccc2c(c1)/C(=C/Nc1cccc(N3CCN(C)CC3)c1)C(=O)N2
(II) O=C1Nc2ccc(F)cc2/C1=C\C(=O)c1sccc1Cl
Inquiry: Field: entry with larger pIC50 (options I / II ). I would appreciate it if you answered with the label of your choice.
Reply text: II

(a) CC(=O)O[C@H]1C(=O)[C@@]2(C)[C@H]([C@H](OC(=O)c3ccccc3)[C@]3(O)C[C@H](OC(=O)[C@H](O)[C@@H](NC(=O)c4ccccc4)c4ccccc4)C(C)=C1C3(C)C)[C@]1(OC(C)=O)CO[C@@H]1C[C@@H]2O
(b) CN1CCN(c2cccc(N/C=C3\C(=O)Nc4ccc(NC(=O)c5ccc[nH]5)cc43)c2)CC1
Inquiry: Field: entry with larger pIC50 (options a / b ). I would appreciate it if you answered with the label of your choice.
Reply text: a

(P) O=C1Nc2ccc(F)cc2/C1=C\C(=O)c1ccc(C2CCCCC2)cc1
(Q) O=C1Nc2ccc(F)cc2/C1=C\C(=O)c1cccs1
(R) COc1ccc(C(=O)Nc2ccc3c(c2)/C(=C/Nc2cccc(N4CCN(C)CC4)c2)C(=O)N3)cc1
Inquiry: Please list these compounds in decreasing order of pIC50. Use the labels to give the ranking in the order requested.
Reply text: R, P, Q
(R: 5.75, P: 5.55, Q: 5.06)

(a) O=C1Nc2ccccc2/C1=C\C(=O)c1c[nH]c2ccccc12
(b) O=C1Nc2ccc([N+](=O)[O-])cc2/C1=C\C(=O)c1ccc(C2CCCCC2)cc1
Inquiry: // compare: a vs b , metric pIC50, want the smaller I would appreciate it if you answered with the label of your choice.
Reply text: b
(b: 5.40, a: 5.68)

(a) O=C1Nc2ccc(F)cc2/C1=C\C(=O)c1ccc2c(c1)OCO2
(b) CN1CCN(c2cccc(N/C=C3\C(=O)Nc4ccc(NC(=O)c5cccc(F)c5)cc43)c2)CC1
Inquiry: // compare: a vs b , metric pIC50, want the smaller I would appreciate it if you answered with the label of your choice.
Reply text: b
(b: 5.17, a: 5.64)

---

test system: HepG2; experiment: Growth inhibition of human HepG2 cells incubated for 3 days by MTT assay; conditions: HepG2, 72 h
outcome measure: IC50 (µM)

# smiles repr, system, measure unit, IC50
measured = [
    ("O=C1Nc2ccc(F)cc2/C1=C\\C(=O)c1ccc[nH]1", "HepG2", "µM", 3.12),
    ("CN1CCN(c2cccc(N/C=C3\\C(=O)Nc4ccc(NC(=O)c5c(F)cccc5F)cc43)c2)CC1", "HepG2", "µM", 3.03),
    ("O=C1Nc2ccc(F)cc2/C1=C\\C(=O)c1cnc2ccc(Cl)nn12", "HepG2", "µM", 3.09),
]

Hello, the source for this data is ChEMBL document CHEMBL4052679, in case you need it.
